B1: library; numbered along this chain (parent)
chain: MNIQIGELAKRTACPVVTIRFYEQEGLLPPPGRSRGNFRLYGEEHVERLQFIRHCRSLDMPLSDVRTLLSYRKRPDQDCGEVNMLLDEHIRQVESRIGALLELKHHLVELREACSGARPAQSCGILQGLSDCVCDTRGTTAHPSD

# Variants of: B1
# Procedure Details: sfGFP reporter fluorescence (15 h) (µM FITC); higher = higher leak
# Experimental Setup: library round: Round 1; ligand: none
The following variants are listed with their measured sfGFP reporter fluorescence values.
Reply with just the number.

Recorded sfGFP reporter fluorescence, per entry:
sequence_content="MNIQIGELAKRTACPVVTIRFYEQEGLLPPPGRSRGNFRLYGEEHVERLQFIRHCRSLDMPLSDVRTLLSYRKRPDQDCGEVNMLLEEHIRQVESRIGALLELKHHLVELREACSGARPAQSCGILQGLSCCVCDTRGTTAHPSD [D87E D131C]" value_kind="sfGFP reporter fluorescence" endpoint_result=0.0622
sequence_content="MNIQIGELAKRTACPVVTIRFYEQEGLLPPPGRSRGNFRLYGEEHVERLQFIRHCRSLDMNLSKVRTLLSYRKRPDQDCGEVTMLLDEHIRQVESRIGALLELKHHLVELREACSGARPAQSCGILQGLSDCVCDTRGTTAHPSD [P61N D64K N83T]" value_kind="sfGFP reporter fluorescence" endpoint_result=0.0684
sequence_content="MNIQIGELAKRTACPVVTIRFYEQEGLLPPPGRSRGNFRLYGEEHVERLQFIRHCRSLDMPLSDVRTLLSYRKRPDQDCGEVNMLLDEHIRQVESRIGALLELKHHLVEIREACSGARPAQSCGILQGLSDCVCATRGTTAHPSD [L110I D135A]" value_kind="sfGFP reporter fluorescence" endpoint_result=0.0608
sequence_content="MNIQIGELAKRTACPVVTIRFYEQEGLLPPPGRSRGNFRLYGEEHVERLQFIRHCRSLDMPLSDVRTLLSYRKRPDQDCGEVTMLLDEHIRQVESRIGALLELRHHLVELREACSGARPAQSCGILQGLSDCVCKTRGTTAHPSD [N83T K104R D135K]" value_kind="sfGFP reporter fluorescence" endpoint_result=0.0682
sequence_content="MNIQIGELAKRTACPVVTIRFYEQEGLLPPPGRSRGNFRLYGEEHVERLQFIRHCRSLDMPLSDVRTLLSYRKRPDQDCGEVNMLLDEHIRQVESRIGALLELKHHLVELIEACSGARPAQSCGILQILSDCVCDTRGTTAHPSD [R111I G128I]" value_kind="sfGFP reporter fluorescence" endpoint_result=0.0666
sequence_content="MNIQIGELAKRTACPVVTIRFYEQEGLLPPPGRSRGNFRLYGEEHVERLQFIRHCRSLDMPLSDVRTLLSYRKRPDQDCGEVSMLLDEHIRQVESRIGALLELKHHLNELREACSGARPAQSCGILQGLSDCVCDTRGTTAHPSD [N83S V108N]" value_kind="sfGFP reporter fluorescence" endpoint_result=0.0632

stdin: Give reported sfGFP reporter fluorescence value for MNIQIGELAKRTACPSVTIRFYEQEGLLPPPGRSRGNFRLYGEEHVERLQFIRHCRSLDMNLSDVRTLLSYRKRPDQDCGEVNMLLDEHIRQVESRIGALLELKHHLVELREACSGARPAQSCGILQGLSDCVCDTRGTTAHPSD [V16S P61N]
stdout: 0.074

stdin: Tell me measured sfGFP reporter fluorescence for MNIQIGELAKRTACPVVTIRFYEQEGLLPPPGRSRGNFRLYGEEHVERLQFIRHCRSLDMPLSDVRTLLSYRKRPDQDCGEVSMLLDEHIRQVESRIGALLELKHHLVELREACSGARPAQSCGILQGLSDCVCATRGTTAHPSD [N83S D135A] please.
stdout: 0.0628

stdin: Indicate the recorded sfGFP reporter fluorescence value for this variant: MNIQIGELAKRTACPVVTIRFYEQEGLLPPPGRSRGNFRLYGEEHVERLQFIRHCRSLDLNLSKVRTLLSYRKRPDQDCGEVNMLLDEHIRQVESRIGALLELKHHCVELREACSGARPAQSCGILQMLSDCVCDTRGTTAHPSD [M60L P61N D64K L107C G128M]
stdout: 2.5

stdin: Answer with the recorded sfGFP reporter fluorescence for the variant listed here: MNIQIGELAKRTACPVVTIRFYEQEGLLPPPGCSRGNFRLYGEEHVERLQFIRHCRSLDMPLSDVRTLLSYRKRPDQDCGEVNMLLDEHIRQVESRIGALLELVHHLVELREACSGARPAQSCGILQGLSDCVCDTRGTTAHPSD [R33C K104V]
stdout: 0.0625

stdin: Quote sfGFP reporter fluorescence reported for MNIQIGELAKRTACPVVTIRFYEQEGLLPPPGRSRGNFRLYGEEHVERLQFIRHCRSLDMPLSDVRTLLSYRKRPDQDCGEVNMLLDEHIRQVESRIGALLELKHHLVELREACSGARPAQSCGILQGLSDCVCATRGTTAHASD [D135A P143A] please.
stdout: 0.0645
